test system: LOX IMVI melanoma; assay: NCI-60 one-dose screen, 48 h (100 = growth as untreated, 0 = no growth, -100 = all killed); conditions: 10 µM unless noted
Compounds without any hit were thinned out: in the full panel of roughly 83,000, 20% have a hit.
Exercise: state measured growth for each of the molecules provided.
Report as a plain number; the unit % is understood.

Item COc1ccc2c(c1)OC(N(C(C)=O)C(C)=O)=C(C#N)C2c1ccc(F)cc1 (centres undefined) : provide growth
47.7

Determine from records and report growth for O=C(Nc1ccc(-n2cc(-c3ccncc3)c(-c3ccc(O)c(Cl)c3)n2)cc1)Nc1cccc(Cl)c1Cl
52.8

Kindly indicate its recorded growth. Item: COc1cc2ncn3c(=O)c4c5c(sc4nc3c2cc1OC)CCCCC5
88.2

Return growth for the following molecule: c1ccc(-c2nc3sc(C(c4ccccc4)c4ccccc4)nn3c2-c2ccccc2)cc1
89.4

Consider the molecule Nc1ncnc2c1c(C(F)(F)F)cn2[C@@H]1O[C@H](CO)[C@@H](O)[C@H]1O . State its measured growth.
6.25

Annotate the molecule O=[N+]([O-])c1ccccc1NC1c2ccccc2Oc2ccccc21 with its measured growth.
65.1

Kindly indicate its recorded growth. Item: CC(C)(C)C(=O)Nc1nc2c(s1)CCc1ccn(S(=O)(=O)c3ccccc3)c1-2
84.5

Tell me growth reported for COc1ccccc1S(=O)(=O)Nc1ccc2c3c(cc(-c4ccoc4)nc13)C(=O)N2C
51.9

Tell us which growth value is on record for Cc1c(NC(=O)c2sc3nc4c(cc3c2N)CN(Cc2ccccc2)CC4)cccc1C(F)(F)F
42.3

Identify measured growth associated with CCC(CC(C)C)Nc1ccc(NC(CC)CC(C)C)cc1 (centres undefined)
83.4

Using known records, supply growth for CC(Cl)(CCl)CS(=O)(=O)c1ccc(Cl)cc1 (centres undefined)
101

Report growth, nothing else, for this molecule: O=C(O)c1ccc(-c2nn(-c3ccc(C(=O)O)cc3)cc2/C=N/Nc2c(F)c(F)cc(F)c2F)cc1
100

State its growth: Cc1cc2c(cc1C)N(C(=O)CCl)CCN2C(=O)CCl
-89.3

Note growth for the molecule shown: CCOC(=O)C1CSC(C)(C(=O)OCC)N1 (centres undefined)
98.2

Let me know recorded growth for Nc1ncnc2c1c(-c1ccc(Oc3ccccc3)cc1)nn2C[C@@H]1SSC[C@H]1O , thanks.
10.7

Assign growth to the following record: O=C(Nc1cccc(-n2ccc3c(NC(=O)c4ccccc4)nccc32)c1)Nc1ccc(Cl)c(C(F)(F)F)c1
11.8

Given the molecule COc1ccc(/C=N/C2=NNC(C)(c3ccccc3O)N2C(Cc2c[nH]c3ccccc23)C(=O)O)cc1 (centres undefined) , write its reported growth.
19.2

Using the record for COc1ccc2c(c1)O/C(=C/c1ccc(OCC(=O)Nc3ccc(S(N)(=O)=O)cc3)cc1)C2=O , state its measured growth.
101

Give the reported value of growth for this record: O=C(c1ccccc1)[C@H]1[C@@H]2CCCN2[C@]2(C(=O)Nc3ccc(F)cc32)[C@]12C(=O)Nc1ccccc12
91.3

// fetch growth given entry NC(CCCC(N)C(=O)c1ccccc1)C(=O)O (centres undefined)
99.8

Identify measured growth associated with Nc1ncc(-c2ccc3ncnc(Nc4ccc(F)c(Cl)c4)c3c2)cn1
35.6

Fill in growth for record O=C(Nc1ccc(-n2ccc3c(NC(=O)c4ccccc4)nccc32)cc1)c1cccc(C(F)(F)F)c1
6.29

Retrieve growth measured for Clc1ccc2c(c1)nnn1c3ncccc3c(Br)c21 and print it.
77.5

Return reported growth. Input molecule: COc1cc2c(cc1OCCCCC(=O)Nc1ccc(-c3nc4ccccc4s3)cc1)N=C[C@@H]1CCCN1C2=O
1.99

Identify measured growth corresponding to OC(COc1ccccc1Cl)CN1CCN(c2ccc(Cl)cc2)CC1 (centres undefined)
104

Recall and state the measured growth for COc1ccc2c(c1)OC(N)=C(C#N)C2c1ccc(F)cc1 (centres undefined) .
39.1

Return value of growth for input FC(F)(F)c1cn(CCN2CCOCC2)c2ncnc(Cl)c12 , no commentary.
-63.9

Please report the measured growth for CC[C@H]1[C@@H]2C=C[C@@H]3[C@H]4C/C=C\C(=O)NCCC[C@@H]5NC(=O)/C(=C(O)/C=C/[C@@H]4C[C@@H]3[C@H]2C[C@H]1C)C5=O
-84.8

Query growth for O=C(CSc1nnc(-c2ccccc2)o1)Nc1ccc(C(=O)/C=C/c2ccccc2)cc1
24.4

Return growth (reported value) for this molecule: C=CC(C)(O)CCC1C(=C)CCC2C(C)(C)CCCC12C (centres undefined)
97.2

Quick one: give measured growth for C=C1c2c(Cl)ccc(O)c2C(O)=C2C(=O)[C@]3(O)C(O)=C(C(N)=O)C(=O)[C@@H](N(C)C)[C@@H]3[C@@H](O)[C@H]12
0.768

Annotate the molecule COc1ccc(Cn2cc(COc3ccc4c5ccnc(C)c5n(CCCc5ccccc5)c4c3)nn2)cc1 with its measured growth.
70.3

Look up and report measured growth for this entry: O=C(NCCNc1nccc(-c2c(-c3cccc(O)c3)nc3sccn23)n1)c1ccc(N2CCOCC2)c(C(F)(F)F)c1
42.2

Determine from records and report growth for Cc1c(C(C)(C)C)cc(C(C)(C)C)c2c1CN(C)CO2
106

Report measured growth; entry is COc1ccccc1N1CCN(CCCOc2ccc(OCCCN3CCN(c4ccccc4OC)CC3)c(C(=O)c3cc(OC)c(OC)c(OC)c3)c2)CC1
116

Output measured growth for this item: c1ccc2c(c1)Oc1cccnc1-n1nccc1-2
96.3

Return the recorded growth value; entry: O=C(Cn1c2ccccc2c2ccncc21)N/N=C/c1cc(O)c(O)c(O)c1
96.9

Give the value of growth reported for the following: Clc1ccc2c(NCCNc3nc(Cl)nc4ccccc34)ccnc2c1
-89.4

Specify growth for CN(C)c1ccc2cc(-c3nc4ccccc4s3)c(N)nc2c1 and stop.
85.3
